Organism: Rattus norvegicus
test: DrugMatrix - Regimen: Daily Repeat
Format: toxicity, organism-based, Sprague-Dawley
Set-up: regimen Daily Repeat, gender Male, age 6-8 weeks
assay-setup: in vivo, po, 0 mg/kg, 120 h, tissue Blood, route oral GAVAGE, dose level Control, time 5 day, vehicle 100 % WATER
readout-type: LYMPHOCYTE (%)
Write down the numeric answer in % and omit the unit.

Param item = Cc1cc(C(C)(C)C)c(O)c(C)c1CC1=NCCN1 [OXYMETAZOLINE] ; retrieve measured LYMPHOCYTE. 87.5

Next: C1CCN2C[C@@H]3C[C@@H](CN4CCCC[C@@H]34)[C@H]2C1 [SPARTEINE] 89.83

What do we get for CCN(CC)C(=S)SSC(=S)N(CC)CC ? 92.17

Another compound: CN1C(=O)OC(C)(C)C1=O [TRIMETHADIONE] 83

# repeat for NN [HYDRAZINE] 89.5

Field entry: C[N+](C)(C)CCOC(N)=O.[Cl-] [CARBACHOL] 92.17

###

Organism: Rattus norvegicus
Type: toxicity, organism-based, Sprague-Dawley
assay-setup: in vivo, iv, 0 mg/kg, 24 h, vehicle control, tissue Blood, dose level Control, time 1 day, vehicle 100 % SALINE
Description: DrugMatrix - Regimen: Single
readout-type: ABSOLUTE MONOCYTE (cells/µL)
Express it in cells/µL; write the number only.

What value of ABSOLUTE MONOCYTE has been reported for the following compound? CC(=O)[C@]1(O)Cc2c(O)c3c(c(O)c2[C@@H](O[C@H]2C[C@H](N)[C@H](O)[C@H](C)O2)C1)C(=O)c1ccccc1C3=O [IDARUBICIN] 260

###

Organism: Rattus norvegicus
test: DrugMatrix - Regimen: Daily Repeat
Type: toxicity, organism-based, Sprague-Dawley
Set-up: regimen Daily Repeat, gender Male, age 6-8 weeks
assay-setup: in vivo, po, 0 mg/kg, 72 h, tissue Plasma, route oral GAVAGE, dose level Control, time 3 day, vehicle .5 % CMC
The label depends only on CHOLESTEROL: MET if it is at least 70 mg/dL, NOT MET if it is smaller.

Worked examples, 3 compounds total:
CCN1CCN(c2cc3c(cc2F)c(=O)c(C(=O)O)cn3C2CC2)CC1 [ENROFLOXACIN]	MET
CCOc1cc(N)c(Cl)cc1C(=O)NCC1CN(Cc2ccc(F)cc2)CCO1 (centres undefined) [MOSAPRIDE]	NOT MET
NCC(CC(=O)O)c1ccc(Cl)cc1 (centres undefined) [BACLOFEN]	NOT MET

Check the entry NC(=O)NC(=O)Cc1ccccc1 [PHENACEMIDE] : does CHOLESTEROL equal or exceed 70 mg/dL? MET

Next compound: COc1cc(NC(C)CCCN)c2ncccc2c1 (centres undefined) [PRIMAQUINE] MET

Now consider Cl.NC[C@H]1CC[C@H](C(=O)Oc2ccc(CCC(=O)O)cc2)CC1 [CETRAXATE HYDROCHLORIDE] . MET

Try CC(C)(C#N)c1cc(Cn2cncn2)cc(C(C)(C)C#N)c1 [ANASTROZOLE] next. MET

###

Reported CREATININE values for the following compounds.
Organism: Rattus norvegicus
test: DrugMatrix - Regimen: Daily Repeat
Format: toxicity, organism-based, Sprague-Dawley
Design: regimen Daily Repeat, gender Male, age 6-8 weeks
assay-setup: in vivo, po, 0 mg/kg, 72 h, tissue Plasma, route oral GAVAGE, dose level Control, time 3 day, vehicle .5 % CMC
Report the value in mg/dL with no unit label.

Quick one: CREATININE for CCN1CCCC1CNC(=O)c1cc(S(N)(=O)=O)ccc1OC (stereo not drawn) [SULPIRIDE] ? 0.18

Try the compound COc1cc(/C=C/C(=O)O)ccc1O [FERULATE] 0.21

Thanks! And CCN1CCN(c2cc3c(cc2F)c(=O)c(C(=O)O)cn3C2CC2)CC1 ? 0.48
